meta.source: the supplement of paper PMC10307832

Tested on: ABC-1
Test: relative viability (nuclei count vs DMSO), 5 days (fraction); higher = more cells survive
Details: first compound 0.08 µM
Assign labels as follows, please: Satisfied for relative viability below 0.8; Not satisfied for relative viability equal to or exceeding 0.8.

The examples below pair each entry with its known result.
compound	target of assay	group
Oc1nc(-c2ccc(C(F)(F)F)cc2)nc2c1CSCC2 [XAV939] + CS(=O)(=O)N1CCN(Cc2cc3nc(-c4cccc5[nH]ncc45)nc(N4CCOCC4)c3s2)CC1 [Pictilisib] (partner 1 µM)	ABC-1	Satisfied
C=C1C(=O)O[C@@H](CCCCCCCC)[C@@H]1C(=O)O [C-75] + Cc1cc(Nc2cc(N3CCN(C)CC3)nc(Sc3ccc(NC(=O)C4CC4)cc3)n2)n[nH]1 [Tozasertib] (partner 0.1 µM)	ABC-1	Satisfied
C=C1C(=O)O[C@@H](CCCCCCCC)[C@@H]1C(=O)O [C-75] + O=C(CCCCCCC(=O)Nc1ccccc1)NO [Vorinostat] (partner 1 µM)	ABC-1	Not satisfied

Given the entry C=C1C(=O)O[C@@H](CCCCCCCC)[C@@H]1C(=O)O [C-75] + COc1cc2c(Oc3ccc(NC(=O)C4(C(=O)Nc5ccc(F)cc5)CC4)cc3F)ccnc2cc1OCCCN1CCOCC1 [Foretinib] (partner 0.25 µM) , would its reported relative viability be below 0.8?
Not satisfied

Given the entry C=C1C(=O)O[C@@H](CCCCCCCC)[C@@H]1C(=O)O [C-75] + C[C@@H](Oc1cc(-c2cnn(C3CCNCC3)c2)cnc1N)c1c(Cl)ccc(F)c1Cl [Crizotinib] (partner 1 µM) , would its reported relative viability be below 0.8?
Not satisfied

Given the entry Oc1nc(-c2ccc(C(F)(F)F)cc2)nc2c1CSCC2 [XAV939] + CC(C)C[C@H](NC(=O)[C@H](Cc1ccccc1)NC(=O)c1cnccn1)B(O)O [Bortezomib] (partner 0.002 µM) , would its reported relative viability be below 0.8?
Satisfied

Given the entry C=C1C(=O)O[C@@H](CCCCCCCC)[C@@H]1C(=O)O [C-75] + C[C@]1(O)C[C@@H](c2nc(-c3ccc4ccc(-c5ccccc5)nc4c3)c3c(N)nccn32)C1 [Linsitinib] (partner 1 µM) , would its reported relative viability be below 0.8?
Not satisfied

Given the entry C=C1C(=O)O[C@@H](CCCCCCCC)[C@@H]1C(=O)O [C-75] + Cc1nc(Nc2ncc(C(=O)Nc3c(C)cccc3Cl)s2)cc(N2CCN(CCO)CC2)n1 [Dasatinib] (partner 0.075 µM) , would its reported relative viability be below 0.8?
Satisfied

----------
Test system: NCI-H23
Experiment: relative viability (nuclei count vs DMSO), 5 days (fraction); higher = more cells survive
Settings: first compound 1 µM
Provide the reported relative viability of each item.
One number for each entry.

Worked examples, 3 compounds total:
compound	relative viability
NC(=O)Nc1cc(-c2cccc(F)c2)sc1C(=O)N[C@H]1CCCNC1 [AZD7762] + CS(=O)(=O)N1CCN(Cc2cc3nc(-c4cccc5[nH]ncc45)nc(N4CCOCC4)c3s2)CC1 [Pictilisib] (partner 1 µM)	0.228
NC(=O)Nc1cc(-c2cccc(F)c2)sc1C(=O)N[C@H]1CCCNC1 [AZD7762] + N=C(N)NC(=N)NCCc1ccccc1 [Phenformin] (partner 250 µM)	0.434
NC(=O)Nc1cc(-c2cccc(F)c2)sc1C(=O)N[C@H]1CCCNC1 [AZD7762] + C[C@]1(O)C[C@@H](c2nc(-c3ccc4ccc(-c5ccccc5)nc4c3)c3c(N)nccn32)C1 [Linsitinib] (partner 1 µM)	0.252

Which measured relative viability value corresponds to NC(=O)Nc1cc(-c2cccc(F)c2)sc1C(=O)N[C@H]1CCCNC1 [AZD7762] + C[C@@H](Oc1cc(-c2cnn(C3CCNCC3)c2)cnc1N)c1c(Cl)ccc(F)c1Cl [Crizotinib] (partner 1 µM) ?
0.203

----------
Tested on: NCI-H1993
Assay: relative viability (nuclei count vs DMSO), 5 days (fraction); higher = more cells survive
Conditions: first compound 0.01 µM
parameter: relative viability
Give bare numbers.

Worked examples, 3 molecules total:
molecule	relative viability
NC(=O)Nc1cc(-c2cccc(F)c2)sc1C(=O)N[C@H]1CCCNC1 [AZD7762] + CS(=O)(=O)CCNCc1ccc(-c2ccc3ncnc(Nc4ccc(OCc5cccc(F)c5)c(Cl)c4)c3c2)o1 [Lapatinib] (partner 2 µM)	0.791
NC(=O)Nc1cc(-c2cccc(F)c2)sc1C(=O)N[C@H]1CCCNC1 [AZD7762] + CC(=O)c1c(C)c2cnc(Nc3ccc(N4CCNCC4)cn3)nc2n(C2CCCC2)c1=O [Palbociclib] (partner 0.5 µM)	0.84
NC(=O)Nc1cc(-c2cccc(F)c2)sc1C(=O)N[C@H]1CCCNC1 [AZD7762] + O=C(CCCCCCC(=O)Nc1ccccc1)NO [Vorinostat] (partner 1 µM)	0.764

Provide relative viability for all items below, preserving their order.
1. NC(=O)Nc1cc(-c2cccc(F)c2)sc1C(=O)N[C@H]1CCCNC1 [AZD7762] + CCNC(=O)c1noc(-c2cc(C(C)C)c(O)cc2O)c1-c1ccc(CN2CCOCC2)cc1 [Luminespib] (partner 0.01 µM)
2. NC(=O)Nc1cc(-c2cccc(F)c2)sc1C(=O)N[C@H]1CCCNC1 [AZD7762] + CC1(C)CCC(c2ccc(Cl)cc2)=C(CN2CCN(c3ccc(C(=O)NS(=O)(=O)c4ccc(N[C@H](CCN5CCOCC5)CSc5ccccc5)c(S(=O)(=O)C(F)(F)F)c4)cc3)CC2)C1 [Navitoclax] (partner 0.5 µM)

1. 1.04
2. 0.943

Which measured relative viability value corresponds to NC(=O)Nc1cc(-c2cccc(F)c2)sc1C(=O)N[C@H]1CCCNC1 [AZD7762] + Cc1cc(Nc2cc(N3CCN(C)CC3)nc(Sc3ccc(NC(=O)C4CC4)cc3)n2)n[nH]1 [Tozasertib] (partner 0.1 µM) ?
0.654

----------
Test system: CAL-12T
Assay: relative viability (nuclei count vs DMSO), 5 days (fraction); higher = more cells survive
Settings: first compound 0.3162 µM
parameter: relative viability

compound	relative viability
NC(=O)Nc1cc(-c2cccc(F)c2)sc1C(=O)N[C@H]1CCCNC1 [AZD7762] + O=C(c1cc(Cc2n[nH]c(=O)c3ccccc23)ccc1F)N1CCN(C(=O)C2CC2)CC1 [Olaparib] (partner 8 µM)	0.489

Provide relative viability for all items below, preserving their order.
1. NC(=O)Nc1cc(-c2cccc(F)c2)sc1C(=O)N[C@H]1CCCNC1 [AZD7762] + C[C@]1(O)C[C@@H](c2nc(-c3ccc4ccc(-c5ccccc5)nc4c3)c3c(N)nccn32)C1 [Linsitinib] (partner 1 µM)
2. NC(=O)Nc1cc(-c2cccc(F)c2)sc1C(=O)N[C@H]1CCCNC1 [AZD7762] + CC(C)C[C@H](NC(=O)[C@H](Cc1ccccc1)NC(=O)c1cnccn1)B(O)O [Bortezomib] (partner 0.002 µM)

1. 0.844
2. 0.641

Provide relative viability for all items below, preserving their order.
1. NC(=O)Nc1cc(-c2cccc(F)c2)sc1C(=O)N[C@H]1CCCNC1 [AZD7762] + C[C@@H](Oc1cc(-c2cnn(C3CCNCC3)c2)cnc1N)c1c(Cl)ccc(F)c1Cl [Crizotinib] (partner 1 µM)
2. NC(=O)Nc1cc(-c2cccc(F)c2)sc1C(=O)N[C@H]1CCCNC1 [AZD7762] + COc1cc2c(Oc3ccc(NC(=O)C4(C(=O)Nc5ccc(F)cc5)CC4)cc3F)ccnc2cc1OCCCN1CCOCC1 [Foretinib] (partner 0.25 µM)
3. NC(=O)Nc1cc(-c2cccc(F)c2)sc1C(=O)N[C@H]1CCCNC1 [AZD7762] + O=C(CCCCCCC(=O)Nc1ccccc1)NO [Vorinostat] (partner 1 µM)

1. 0.33
2. 0.874
3. 0.276

----------
Test system: NCI-H1355
Assay: relative viability (nuclei count vs DMSO), 5 days (fraction); higher = more cells survive
Conditions: first compound 0.1265 µM
Provide the reported relative viability of each item.
Numbers only.

Worked examples, 4 molecules total:
molecule	endpoint result
O=C(O)c1ccc(-c2c[nH]c3ncc(-c4ccccc4)cc23)cc1C1CCCC1 + Cc1cc(Nc2cc(N3CCN(C)CC3)nc(Sc3ccc(NC(=O)C4CC4)cc3)n2)n[nH]1 [Tozasertib] (partner 0.1 µM)	0.632
O=C(O)c1ccc(-c2c[nH]c3ncc(-c4ccccc4)cc23)cc1C1CCCC1 + CC(=O)c1c(C)c2cnc(Nc3ccc(N4CCNCC4)cn3)nc2n(C2CCCC2)c1=O [Palbociclib] (partner 0.5 µM)	0.406
O=C(O)c1ccc(-c2c[nH]c3ncc(-c4ccccc4)cc23)cc1C1CCCC1 + CS(=O)(=O)N1CCN(Cc2cc3nc(-c4cccc5[nH]ncc45)nc(N4CCOCC4)c3s2)CC1 [Pictilisib] (partner 1 µM)	0.514
O=C(O)c1ccc(-c2c[nH]c3ncc(-c4ccccc4)cc23)cc1C1CCCC1 + O=C(c1cc(Cc2n[nH]c(=O)c3ccccc23)ccc1F)N1CCN(C(=O)C2CC2)CC1 [Olaparib] (partner 8 µM)	0.837

Which measured relative viability value corresponds to O=C(O)c1ccc(-c2c[nH]c3ncc(-c4ccccc4)cc23)cc1C1CCCC1 + CS(=O)(=O)CCNCc1ccc(-c2ccc3ncnc(Nc4ccc(OCc5cccc(F)c5)c(Cl)c4)c3c2)o1 [Lapatinib] (partner 2 µM) ?
1.09
